Sourced from patent US20230203029A1

Test system: BCR-Ba/F3 control cell line
Assay: Assay 5 Ba/F3 cell survival assay, BCR-none control line
Format: cell-based
Details: Mus musculus, BaF3
READOUT TYPE: pIC50
On this scale, pIC50 is minus log10 of a concentration expressed in M (mol/L).

pIC50 on BCR-Ba/F3 control cell line for `O=C(Nc1ccc(Oc2ccnc3cnc(N4CCN(C5COC5)CC4)cc23)cn1)c1ccnn(-c2ccc(F)cc2)c1=O` is 6.08

---

Biological target: Ba/F3 Pro B-cell line expressing BCR-human AXL kinase domain fusion protein (Homo sapiens)
Construct: P11274 (Breakpoint cluster region protein)
Sequence (P30530 536-807 limits assumed): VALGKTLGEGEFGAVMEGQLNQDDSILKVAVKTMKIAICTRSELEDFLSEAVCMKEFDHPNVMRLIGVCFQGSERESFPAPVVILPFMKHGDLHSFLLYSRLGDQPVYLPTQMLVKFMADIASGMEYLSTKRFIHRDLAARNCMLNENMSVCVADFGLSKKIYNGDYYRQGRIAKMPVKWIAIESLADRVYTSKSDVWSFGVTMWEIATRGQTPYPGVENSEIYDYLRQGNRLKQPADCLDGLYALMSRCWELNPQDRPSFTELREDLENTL
Experiment: Assay 5 Ba/F3 cell survival assay, BCR-Axl
Conditions: read-out: BCR-Axl Ba/F3 IC50, 48 h, CellTiter-Glo
READOUT TYPE: pIC50
pIC50 here: minus log base 10 of the concentration, concentration in moles per litre.

The reported value for `O=C(Nc1ccc(Oc2ccnc3cnc(N4CCNCC4)cc23)cc1)c1cn(C2CC2)c(=O)n(-c2ccc(F)cc2)c1=O` in terms of pIC50 is 7.47

Recorded result, `Cc1cc(NC(=O)c2cccn(-c3ccc(F)cc3)c2=O)ncc1Oc1ccnc2cnc(C(=O)NC3CCN(C)CC3)cc12` , pIC50: 7.57

For reference, reported pIC50 for `CC(C)n1cc(C(=O)Nc2ccc(Oc3ccnc4cnc(C(=O)N[C@H]5CCN(C)C5)cc34)cn2)c(=O)n(-c2ccc(F)cc2)c1=O` stands at 7.85

Reported pIC50 for `O=C(Nc1ccc(Oc2ccnc3cnc(C4CCNCC4)cc23)cn1)c1cccn(-c2ccc(F)cc2)c1=O` was 7.34

# pIC50 (compound: `CN1CCC(c2cc3c(Oc4ccc(NC(=O)c5cccn(-c6ccc(F)cc6)c5=O)cc4)ccnc3cn2)CC1` ) is 7.51

Reported pIC50 ( `CC(C)(C)OC(=O)N1CCC(c2cc3c(Oc4ccc(NC(=O)c5cccn(-c6ccc(F)cc6)c5=O)nc4)ccnc3cn2)CC1` ) = 6.81

# compound `CC(C)n1cc(C(=O)Nc2ccc(Oc3ccnc4cnc(C(=O)NC5CCN(C(=O)OC(C)(C)C)CC5)cc34)cn2)c(=O)n(-c2ccc(F)cc2)c1=O` ; its pIC50 = 7.82
